Below is a list of entries, each paired with its recorded viability value.
Assay: endothelial cell growth inhibition – HUVEC, 384-well, primary screen (AID 648);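 note: 100% = median luminescence of DMSO-only cell control wells on each plate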
Conditions: HUVEC proliferation, CellTiter-Glo luminescence, 72 h; active compounds read low; screened at 10 µM (by protocol)
The campaign covered roughly 86,000 compounds. About 920 (1.1%) were called active. The sample as a whole holds a higher share of actives than the screen did.

- compound: "Cc1ccc(S(=O)(=O)/N=C(\\CN2CCOCC2)N2CCOCC2)cc1"
  viability, %: 89.5
- compound: "OCCN1CCOCCOCCN(CCO)CCN(CCO)CC1"
  viability, %: 105
- compound: "COC(=O)c1ccccc1Oc1c(F)c(F)nc(N2CCOCC2)c1F"
  viability, %: 95.4
- compound: "CCC1(CC)Cc2ccccc2-c2nc3ccccc3c(=O)n21"
  viability, %: 102
- compound: "Cc1ccc(C(CC(=O)O)Nc2nc(N3CCCCC3)nc(N3CCCCC3)n2)cc1 (configuration not stated)"
  viability, %: 99.9
- compound: "O=C(CO/N=C/c1ccccc1O)NNC(=O)c1ccccc1Cl"
  viability, %: 97.1
- compound: "OC(COc1ccc2c(c1)CCC2)CN1CCN(c2cccc(Cl)c2)CC1 (configuration not stated)"
  viability, %: 83.9
- compound: "CC(=O)c1cccc(NC(=O)Nc2ccc(C)cc2)c1"
  viability, %: 90
- compound: "Cc1ccc(CN2CCN(/N=C/c3ccco3)CC2)c(C)c1"
  viability, %: 104
- compound: "CCOc1ccc(S(=O)(=O)N2CCCCCC2)c2ccccc12"
  viability, %: 102
- compound: "COC(=O)c1ccc(CSc2nnc(NC(C)C)s2)cc1"
  viability, %: 96.9
- compound: "CC(C)n1c(C(O)c2ccccc2)nc2ccccc21 (configuration not stated)"
  viability, %: 99.3

====

Assay: endothelial cell growth inhibition – HUVEC, 384-well, primary screen (AID 648);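 note: 100% = median luminescence of DMSO-only cell control wells on each plate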
Settings: HUVEC proliferation, CellTiter-Glo luminescence, 72 h; screened at 10 µM (by protocol)
Among all 86,000 compounds or so, about 920 (1.1%) were called active.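 Rule for the calls: active = viability at or below 30%; inactive = viability above 30%.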 The entries come from a sample that favours actives as a whole.
Outcomes: active, inactive

- molecule: "CCOC(=O)c1nnn(-c2nonc2-n2cccc2)c1CN1CCC(C(=O)OCC)CC1"
  discrete-label: "inactive"
- molecule: "COc1ccc(-c2cc(C)nc3nc(N)nn23)cc1"
  discrete-label: "inactive"
- molecule: "CCC1(C)Cc2c(sc3nc4n(c(=O)c23)CCCS4)CO1 (stereo unspecified)"
  discrete-label: "inactive"
- molecule: "Cc1cc(N)n2nc(-c3ccc(C(C)(C)C)cc3)cc2n1"
  discrete-label: "active"
- molecule: "CC(C)CCNc1nc(N2CCCC2)c2c(c1C#N)CCN(C)C2"
  discrete-label: "active"
- molecule: "CCN1CCc2c(C#N)c(NCc3ccccc3)nc(NCCO)c2C1"
  discrete-label: "inactive"
- molecule: "CCC1(C)Cc2c(sc3[nH]c(=S)n(Cc4ccccc4)c(=O)c23)CO1 (stereo unspecified)"
  discrete-label: "active"
- molecule: "CCCCCN1CC(O)=C(c2nc(-c3ccc(Cl)cc3)cs2)C1=N"
  discrete-label: "inactive"
- molecule: "CCN(CC)C(=O)CSc1nnc(-c2cccc(OC)c2)o1"
  discrete-label: "inactive"
- molecule: "CCSc1nnc(NC(=O)Cc2ccccc2OC)s1"
  discrete-label: "inactive"
- molecule: "COc1cc(/C=C(\\C#N)c2nc3c(s2)CC(C)CC3)ccc1O (stereo unspecified)"
  discrete-label: "inactive"

====

Below is a list of entries, each paired with its recorded viability value.
Assay: endothelial cell growth inhibition – HUVEC, 384-well, primary screen (AID 648);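 note: 100% = median luminescence of DMSO-only cell control wells on each plate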
Settings: HUVEC proliferation, CellTiter-Glo luminescence, 72 h; active compounds read low; screened at 10 µM (by protocol)
Screen size: about 86,000 compounds; about 920 (1.1%) were called active. The full list was thinned out, with actives kept by preference.

- molecule: "Cc1cccc2nc(CSc3nc4[nH]ncc4c(=O)n3-c3cccc(Cl)c3)cc(=O)n12"
  viability / %: 76.9
- molecule: "COc1ccc(CC(=O)Nc2ccc(-c3nnc(-c4ccc(C)cc4)o3)cc2)cc1"
  viability / %: 61.7
- molecule: "Cc1cccc(NC(=O)N(Cc2cc3cc(C)cc(C)c3[nH]c2=O)CC2COCCO2)c1 (configuration not stated)"
  viability / %: 77.6
- molecule: "C=CCn1c(N)c(C(=O)OCC(C)C)c2nc3ccccc3nc21"
  viability / %: 66.4
- molecule: "CCn1c(CNC(=O)c2ccccc2)nnc1SCC(=O)N1CCN(c2ccccc2)CC1"
  viability / %: 98.7
- molecule: "COc1ccc(N(CC(=O)NC2CCCCC2)S(=O)(=O)c2c(C)[nH]c(=O)[nH]c2=O)cc1"
  viability / %: 96.7
- molecule: "C=CCn1c(N)c(S(=O)(=O)c2cccs2)c2nc3ccccc3nc21"
  viability / %: 107
